STUDY TARGET: HOXA13 DNA-binding domain peptide (A13-DBD) (UniProt Q62424 320-386)
Sequence (Q62424 320-386): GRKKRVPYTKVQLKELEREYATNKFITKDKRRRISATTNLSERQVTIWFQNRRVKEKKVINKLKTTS
PROCEDURE SUMMARY: fluorescence anisotropy; legend says affinity ablated; titrated only to 200 nM; FP: 1 nM fluorescein-labeled hairpin, 0-200 nM HOXA13-DBD, 15 C, buffer per ref 71 (not given); EMSA: Promega Gel Shift Binding System
ASSAY CONTEXT: protein: recombinant, label: fluorescein, 14 bp stem, CCCCC loop
RECORDED METRIC: Kd (nM)
Could you give me the number in nM? Just the number is fine.

Entry TGACTGACTGACTGCCCCCCAGTCAGTCAGTCA (structured_DNA) [TGAC control hairpin] ; Kd = 250

Origin of measurements: paper PMC2367452
